target: 28 CDKs family protein kinases (Homo sapiens, UniProt P06493); construct: purchased ProQinase GmbH; host or cells: Sf9 insect cells or E. coli; experiment: In vitro IC50 profile for CDKs family kinase (33PanQinase Activity Assay, ProQinase); format: biochemical; details: CDK1/CycA2; read-out: CDK7 selectivity profile in CDKs family, IC50
Sequence (P06493 whole entry): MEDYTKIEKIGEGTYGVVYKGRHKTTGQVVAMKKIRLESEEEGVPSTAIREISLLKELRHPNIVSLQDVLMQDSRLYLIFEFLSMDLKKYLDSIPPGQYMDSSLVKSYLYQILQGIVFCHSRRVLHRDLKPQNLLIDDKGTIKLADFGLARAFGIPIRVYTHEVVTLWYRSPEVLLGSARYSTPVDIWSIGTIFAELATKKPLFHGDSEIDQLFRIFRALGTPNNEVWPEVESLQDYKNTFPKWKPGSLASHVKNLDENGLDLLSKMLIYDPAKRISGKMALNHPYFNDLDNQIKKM
Sequence (P20248 whole entry partner): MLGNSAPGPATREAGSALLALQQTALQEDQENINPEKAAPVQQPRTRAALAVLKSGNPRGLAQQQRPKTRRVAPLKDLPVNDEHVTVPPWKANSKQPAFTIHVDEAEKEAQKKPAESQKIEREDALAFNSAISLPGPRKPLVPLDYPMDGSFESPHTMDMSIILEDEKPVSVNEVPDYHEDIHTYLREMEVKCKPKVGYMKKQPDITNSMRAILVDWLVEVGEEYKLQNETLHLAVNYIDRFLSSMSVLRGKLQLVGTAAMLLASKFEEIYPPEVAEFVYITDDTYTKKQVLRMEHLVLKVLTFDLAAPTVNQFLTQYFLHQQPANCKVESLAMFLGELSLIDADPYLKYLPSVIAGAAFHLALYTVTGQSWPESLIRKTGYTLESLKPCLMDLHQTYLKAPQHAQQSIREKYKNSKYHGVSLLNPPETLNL
pIC50: −log10 of the molar value.

{"mol.smiles": "CC(C)c1cnn2c(NCc3ccccc3-c3nccc4cc(NC(=O)/C=C/CN(C)C)ccc34)nc(N3CCC(N)CC3)nc12", "target.or.test.system": "28 CDKs family protein kinases (Homo sapiens, UniProt P06493)", "pIC50": "< 5.00"}

====

Target: 28 CDKs family protein kinases (Homo sapiens)
Construct: purchased ProQinase GmbH; host or cells: Sf9 insect cells or E. coli
Assay: In vitro IC50 profile for CDKs family kinase (33PanQinase Activity Assay, ProQinase)
Assay type: biochemical
Conditions: CDK9/CycT1; read-out: CDK7 selectivity profile in CDKs family, IC50
Experimental: The IC50 profile of compound 11 was determined using 28 CDKs family protein kinases through ProQinase GmbH (Freiburg, Germany). All the protocol and materials had been provided by ProQinase GmbH. […] Kinases from external vendors, Carna Biosciences Inc.; Invitrogen Corp.; and Millipore Corp., were expressed, purified and quality-controlled by virtue of the vendors readings. […] Incorporation of ^33Pi was determined with a microplate scintillation counter (Microbeta, Wallac). […]

{"mol.smiles": "CC(C)c1cnn2c(NCc3ccccc3-c3nccc4cc(NC(=O)/C=C/CN(C)C)ccc34)nc(N3CCC(N)CC3)nc12", "IC50": "> 10 µM"}

====

biological target: 28 CDKs family protein kinases (Homo sapiens); test: In vitro IC50 profile for CDKs family kinase (33PanQinase Activity Assay, ProQinase); conditions: CDK12wt/CycK; read-out: CDK7 selectivity profile in CDKs family, IC50
metric: IC50

{"molecule": "CC(C)c1cnn2c(NCc3ccccc3-c3nccc4cc(NC(=O)/C=C/CN(C)C)ccc34)nc(N3CCC(N)CC3)nc12 [Compound 11]", "experimental.value": "> 10 µM"}

====

target: 28 CDKs family protein kinases (Homo sapiens, UniProt Q00526); construct: purchased ProQinase GmbH; host or cells: Sf9 insect cells or E. coli; assay: In vitro IC50 profile for CDKs family kinase (33PanQinase Activity Assay, ProQinase); type: biochemical; details: CDK3/CycE1; read-out: CDK7 selectivity profile in CDKs family, IC50
Sequence (Q00526 whole entry): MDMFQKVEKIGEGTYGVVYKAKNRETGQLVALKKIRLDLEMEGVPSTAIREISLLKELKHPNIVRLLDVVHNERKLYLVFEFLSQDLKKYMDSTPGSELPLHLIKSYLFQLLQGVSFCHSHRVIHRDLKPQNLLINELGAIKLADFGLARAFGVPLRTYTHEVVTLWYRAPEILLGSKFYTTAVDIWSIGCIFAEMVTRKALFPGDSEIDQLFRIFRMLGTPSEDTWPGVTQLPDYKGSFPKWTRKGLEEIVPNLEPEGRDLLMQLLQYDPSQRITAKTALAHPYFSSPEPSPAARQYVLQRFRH
Sequence (P24864 whole entry partner): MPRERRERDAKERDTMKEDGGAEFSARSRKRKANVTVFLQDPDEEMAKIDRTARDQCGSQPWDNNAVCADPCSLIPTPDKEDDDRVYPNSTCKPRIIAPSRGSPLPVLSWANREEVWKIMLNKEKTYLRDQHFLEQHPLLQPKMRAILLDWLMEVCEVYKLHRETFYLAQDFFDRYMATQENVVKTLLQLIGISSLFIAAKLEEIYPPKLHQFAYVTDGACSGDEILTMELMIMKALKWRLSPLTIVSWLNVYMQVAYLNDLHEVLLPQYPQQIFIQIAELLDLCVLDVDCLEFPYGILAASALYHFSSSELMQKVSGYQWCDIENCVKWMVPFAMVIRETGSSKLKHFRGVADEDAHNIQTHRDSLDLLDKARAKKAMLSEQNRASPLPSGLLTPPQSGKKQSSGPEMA
pIC50: −log10 of the molar value.

{"mol.smiles": "CC(C)c1cnn2c(NCc3ccccc3-c3nccc4cc(NC(=O)/C=C/CN(C)C)ccc34)nc(N3CCC(N)CC3)nc12", "target.or.test.system": "28 CDKs family protein kinases (Homo sapiens, UniProt Q00526)", "pIC50": "< 5.00"}

====

target: CDK5/p25 (Homo sapiens, UniProt Q00535); assay: Enzymatic assay for CDK5 (LANCE Ultra kinase assay, FRET based); conditions: ATP at Km
Sequence (Q00535 whole entry): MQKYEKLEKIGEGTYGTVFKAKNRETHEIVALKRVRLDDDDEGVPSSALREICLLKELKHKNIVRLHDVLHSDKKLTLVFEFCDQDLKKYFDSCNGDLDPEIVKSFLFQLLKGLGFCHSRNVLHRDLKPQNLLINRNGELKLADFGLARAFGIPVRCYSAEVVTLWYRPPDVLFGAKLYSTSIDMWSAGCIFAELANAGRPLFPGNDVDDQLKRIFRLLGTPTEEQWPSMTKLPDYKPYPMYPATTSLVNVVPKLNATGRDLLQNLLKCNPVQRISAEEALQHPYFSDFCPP
Sequence (Q15078 99-307 partner limits assumed): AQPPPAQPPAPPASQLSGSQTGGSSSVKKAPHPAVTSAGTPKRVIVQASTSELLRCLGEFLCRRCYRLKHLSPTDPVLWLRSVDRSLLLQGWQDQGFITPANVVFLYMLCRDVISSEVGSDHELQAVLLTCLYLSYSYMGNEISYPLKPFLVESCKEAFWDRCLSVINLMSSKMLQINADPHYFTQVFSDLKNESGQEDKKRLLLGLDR

{"compound": "CC(C)c1cnn2c(NCc3ccccc3-c3nccc4cc(NC(=O)/C=C/CN(C)C)ccc34)nc(N[C@H]3CC[C@H](O)C3)nc12", "IC50": "> 1 µM"}
{"compound": "CC(C)c1cnn2c(NCc3ccccc3-c3nccc4cc(NC(=O)/C=C/CN(C)C)ccc34)nc(NC[C@H]3CNC[C@@H]3O)nc12", "IC50": "> 1 µM"}
{"compound": "CC(C)c1cnn2c(NCc3ccccc3-c3nccc4cc(NC(=O)/C=C/CN(C)C)ccc34)nc(N3CCC4(CC3)OCCO4)nc12", "IC50": "> 1 µM"}
{"compound": "C=CC(=O)Nc1ccc2c(-c3ccccc3CNc3cc(C(F)(F)F)nc4c(C(C)C)cnn34)nccc2c1", "IC50": "> 1 µM"}
{"compound": "CC#CC(=O)Nc1ccc2c(-c3ccccc3CNc3nc(N[C@H]4CC[C@H](OC)CC4)nc4c(C(C)C)cnn34)nccc2c1", "IC50": "> 1 µM"}
{"compound": "C=CC(=O)Nc1ccc2c(-c3ccccc3CNc3nc(NCc4cnc(C)s4)nc4c(C(C)C)cnn34)nccc2c1", "IC50": "> 1 µM"}
{"compound": "Cc1cccc(-c2cc3cccc(NC(=O)/C=C/CN(C)C)c3[nH]2)c1CNc1nc(NCC2CCNCC2)nc2c(C(C)C)cnn12", "IC50": "> 1 µM"}
{"compound": "C=CC(=O)Nc1ccc2c(-c3ccccc3CNc3nc(-c4ccncc4)nc4c(C(C)C)cnn34)nccc2c1", "IC50": "> 1 µM"}
{"compound": "CC(C)c1cnn2c(NCc3ccccc3-c3cc4c(NC(=O)/C=C/CN(C)C)cccc4[nH]3)nc(N3CCC(N)CC3)nc12", "IC50": "< 0.1 µM"}
{"compound": "C=C(F)C(=O)N1CCc2c(cccc2-c2ccccc2CNc2nc(OC3CCC(C)(C)NC3)nc3c(C(C)C)cnn23)C1 (centres unmarked)", "IC50": "> 1 µM"}
{"compound": "C=CC(=O)Nc1ccc2c(-c3ccccc3CNc3nc(N4C5CCC4CC(O)C5)nc4c(C(C)C)cnn34)nccc2c1 (centres unmarked)", "IC50": "> 1 µM"}
{"compound": "Cc1cccc(-c2ccc3cccc(NC(=O)/C=C/CN(C)C)c3n2)c1CNc1nc(N2CCC(N)CC2)nc2c(C(C)C)cnn12", "IC50": "> 1 µM"}
{"compound": "CC(C)c1cnn2c(NCc3ccccc3-c3nccc4cc(NC(=O)/C=C/CN(C)C)ccc34)nc(NC3CCC(O)CC3)nc12 (centres unmarked)", "IC50": "> 1 µM"}
{"compound": "CC(C)c1cnn2c(NCc3ccccc3Oc3ccc(NC(=O)/C=C/CN(C)C)cc3)nc(N3CCC(N)CC3)nc12", "IC50": "0.1 to 1 µM"}
{"compound": "CC(C)c1cnn2c(NCc3ccccc3-c3nccc4cc(NC(=O)/C=C/CN(C)C)ccc34)nc(NCC3CCNC(=O)C3)nc12 (racemic)", "IC50": "> 1 µM"}
{"compound": "CC(C)c1cnn2c(NCc3ccccc3-n3cc4cc(NC(=O)/C=C/CN(C)C)ccc4n3)nc(N3CCC(N)CC3)nc12", "IC50": "0.1 to 1 µM"}
{"compound": "CC(C)c1cnn2c(NCc3ccccc3-c3nccc4cc(NC(=O)/C=C/CN5CCCCC5)ccc34)nc(NC[C@H]3CCNC[C@@H]3O)nc12", "IC50": "> 1 µM"}
{"compound": "CC(C)c1cnn2c(NCc3ccccc3OC3CCN(C(=O)/C=C/CN(C)C)CC3)nc(N3CCC(N)CC3)nc12", "IC50": "0.1 to 1 µM"}
{"compound": "CC(C)c1cnn2c(NCc3ccccc3-c3nccc4cc(NC(=O)/C=C/CN(C)C)ccc34)cc(N3CCC4(CC3)OCCO4)nc12", "IC50": "> 1 µM"}
{"compound": "C=CC(=O)Nc1ccc2c(-c3ccccc3CNc3cc(C)nc4c(C(C)C)cnn34)nccc2c1", "IC50": "> 1 µM"}
{"compound": "C=CC(=O)Nc1ccc2c(-c3ccccc3CNc3nc(N[C@H]4CC[C@H](OC)CC4)nc4c(C(C)C)cnn34)nccc2c1", "IC50": "> 1 µM"}
{"compound": "CO[C@H]1CC[C@H](Nc2cc(NCc3ccccc3-c3nccc4cc(NC(=O)/C=C/CN(C)C)ccc34)n3ncc(C(C)C)c3n2)CC1", "IC50": "> 1 µM"}
{"compound": "CC(C)c1cnn2c(NCc3ccccc3-c3nccc4cc(NC(=O)/C=C/CN(C)C)ccc34)nc(N[C@@H]3CCCNC3)nc12", "IC50": "> 1 µM"}
{"compound": "CC(C)c1cnn2c(NCc3cccc4ccc(NC(=O)/C=C/CN(C)C)nc34)nc(N3CCC(N)CC3)nc12", "IC50": "0.1 to 1 µM"}
{"compound": "C=C(F)C(=O)Nc1ccc2c(-c3ccccc3CNc3nc(N4CCNCC4)nc4c(C(C)C)cnn34)nccc2c1", "IC50": "> 1 µM"}
{"compound": "C=CC(=O)Nc1ccc2c(-c3ccccc3CNc3nc(Nc4cccc(OC5CCC(C)(C)NC5)c4)nc4c(C(C)C)cnn34)nccc2c1 (centres unmarked)", "IC50": "> 1 µM"}
